Reference source: patent US20240018153A1

The entries below come with measured remaining activity at 10 µM values attached.
Molecular target: UniProtKB P22455
Sequence (P22455 22-802): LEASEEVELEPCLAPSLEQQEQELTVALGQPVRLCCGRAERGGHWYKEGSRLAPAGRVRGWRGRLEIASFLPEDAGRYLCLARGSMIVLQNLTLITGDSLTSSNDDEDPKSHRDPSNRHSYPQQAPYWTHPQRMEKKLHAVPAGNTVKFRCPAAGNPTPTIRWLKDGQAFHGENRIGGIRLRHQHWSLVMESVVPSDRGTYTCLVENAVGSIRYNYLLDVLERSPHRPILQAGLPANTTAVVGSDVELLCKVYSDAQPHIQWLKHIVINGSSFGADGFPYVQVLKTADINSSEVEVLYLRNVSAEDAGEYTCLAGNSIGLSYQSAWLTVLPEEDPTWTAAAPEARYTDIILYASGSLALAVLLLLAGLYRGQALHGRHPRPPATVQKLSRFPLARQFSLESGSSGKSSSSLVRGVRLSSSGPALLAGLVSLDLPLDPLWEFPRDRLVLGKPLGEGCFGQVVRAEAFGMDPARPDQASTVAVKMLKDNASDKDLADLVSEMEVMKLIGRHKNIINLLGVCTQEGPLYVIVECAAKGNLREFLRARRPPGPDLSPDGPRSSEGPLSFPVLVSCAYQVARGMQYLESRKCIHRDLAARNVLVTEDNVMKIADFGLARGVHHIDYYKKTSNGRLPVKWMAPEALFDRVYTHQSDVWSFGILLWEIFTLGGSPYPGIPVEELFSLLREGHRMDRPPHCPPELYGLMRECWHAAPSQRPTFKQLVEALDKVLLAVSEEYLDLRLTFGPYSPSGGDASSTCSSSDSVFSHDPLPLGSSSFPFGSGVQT
Experiment: HTRF KinEASE-TK kinase assay, FGFR4
Type: biochemical
Conditions: read-out: % FGFR4 Remaining activity vs DMSO (10 μM, 3 h)

Would you please look over these solved cases?
CN(CCn1nc(-c2ccc(Oc3ccccc3)cc2)c2c(N)ncnc21)C(=O)c1c(F)c(F)c(F)c(F)c1S(=O)(=O)N(C)C; < 50%
CS(=O)(=O)c1c(F)c(F)c(F)c(F)c1CNCCn1nc(-c2ccc(Oc3ccccc3)cc2)c2c(N)ncnc21; < 50%
Nc1ncnc2c1c(-c1ccc(Oc3ccccc3)cc1)nn2CCNC(=O)c1c(F)c(F)c(F)c(F)c1S(N)(=O)=O; 50 to 90%

Exam item: // Input: "CS(=O)(=O)c1c(F)c(F)c(F)c(F)c1C(=O)N1CC(n2nc(-c3ccc(Oc4ccccc4)cc3)c3c(N)ncnc32)C1" . Output its remaining activity at 10 µM only.
Marked response: < 50%

Exam item: // Input: "CN(C)S(=O)(=O)c1c(F)c(F)c(F)c(F)c1C(=O)NCCNc1ncnc2[nH]ccc12" . Output its remaining activity at 10 µM only.
Marked response: 50 to 90%

Exam item: // Input: C[S+]([O-])c1c(F)c(F)c(F)c(F)c1C(=O)Nc1cc2c(Nc3ccc(F)c(Cl)c3)ncnc2cc1OC1CCOC1 (centres unmarked) . Output its remaining activity at 10 µM only.
Marked response: > 90%

Exam item: // Input: "COCCOc1ccc(Nc2ncc(F)c(Nc3cccc(NS(=O)(=O)c4c(F)c(F)c(F)c(F)c4CF)c3)n2)cc1" . Output its remaining activity at 10 µM only.
Marked response: < 50%

Exam item: // Input: "COCCOc1ccc(Nc2ncc(F)c(Nc3cccc(NC(=O)c4c(F)c(F)c(F)c(F)c4S(C)(=O)=O)c3)n2)cc1" . Output its remaining activity at 10 µM only.
Marked response: < 50%

Exam item: // Input: C[S@+]([O-])c1c(F)c(F)c(F)c(F)c1C(=O)Nc1ncnc2[nH]ccc12 (racemic) . Output its remaining activity at 10 µM only.
Marked response: > 90%

Exam item: // Input: COCCOc1ccc(Nc2ncc(F)c(Nc3cccc(NC(=O)c4c(F)c(F)c(F)c(F)c4[S@+](C)[O-])c3)n2)cc1 (stereo in doubt) . Output its remaining activity at 10 µM only.
Marked response: < 50%

Exam item: // Input: "CS(=O)(=O)c1c(F)c(F)c(F)c(F)c1CNCCNc1ncnc2[nH]ccc12" . Output its remaining activity at 10 µM only.
Marked response: 50 to 90%
